Experiment: solvent given as SMILES
Conditions: in c1cc(-c2cccc(-n3c4ccccc4c4ccccc43)c2)cc(-n2c3ccccc3c3ccccc32)c1
Below: a set of entries, each annotated with reported fluorescence lifetime.
Report the value in ns with no unit label.

See these solved cases before continuing.
INSERT INTO measurements (structure_smiles, measurement) VALUES
  ('N#Cc1c(-n2c3ccccc3c3ccccc32)c(-n2c3ccc(-c4ccccc4)cc3c3cc(-c4ccccc4)ccc32)c(-n2c3ccccc3c3ccccc32)c(-n2c3ccc(-c4ccccc4)cc3c3cc(-c4ccccc4)ccc32)c1-n1c2ccccc2c2ccccc21', 4.5),
  ('Cc1cc(C)c2c(c1)c1cc(C)cc(C)c1n2-c1ccc2c(c1)B(c1c(C(C)C)cc(C(C)C)cc1C(C)C)c1cc(-n3c4c(C)cc(C)cc4c4cc(C)cc(C)c43)ccc1N2c1ccccc1', 9);

Now consider the entry below.
Query: Item under review: `CC1(C)c2ccccc2N(c2ccc3nc4c5ccc(N6c7ccccc7C(C)(C)c7ccccc76)cc5c5cc(N6c7ccccc7C(C)(C)c7ccccc76)ccc5c4nc3c2)c2ccccc21` . Reported fluorescence lifetime?
Response: 32
